# tested-target: Adenosine receptor A1 (Homo sapiens) (UniProt P30542)
# Sequence (P30542 whole entry): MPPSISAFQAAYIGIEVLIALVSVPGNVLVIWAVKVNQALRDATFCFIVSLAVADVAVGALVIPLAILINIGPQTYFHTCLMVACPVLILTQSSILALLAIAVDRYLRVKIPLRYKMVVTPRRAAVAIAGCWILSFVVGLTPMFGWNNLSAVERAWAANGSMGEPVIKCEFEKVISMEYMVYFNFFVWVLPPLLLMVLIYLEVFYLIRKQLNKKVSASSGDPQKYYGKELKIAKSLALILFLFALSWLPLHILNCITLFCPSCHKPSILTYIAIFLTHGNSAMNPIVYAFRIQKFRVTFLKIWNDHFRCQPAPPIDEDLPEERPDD
# procedure-summary: Displacement of [3H]N6-R-phenylisopropyladenosine from human A1AR expressed in HEK293 cells at 10 uM by radio ligand binding assay relative to control
# Assay type: cell-based
parameter: inhibition (%)

Guide cases for inhibition, answers given:
CNC(=O)[C@@]12C[C@@H]1[C@@H](n1cnc3c(NC)nc(C#Cc4ccc(F)s4)nc31)[C@H](O)[C@@H]2O | 33
CNC(=O)[C@@]12C[C@@H]1[C@@H](n1cnc3c(NC)cc(C#Cc4ccc(F)s4)nc31)[C@H](O)[C@@H]2O | 20

(I) CCNc1cc(C#Cc2ccc(F)s2)nc2c1ncn2[C@H]1[C@H](O)[C@H](O)[C@]2(C(=O)NC)C[C@H]12
(II) CCOC(=O)[C@@]12C[C@@H]1[C@@H](n1cnc3c(NC)cc(C#Cc4ccc(Cl)s4)nc31)[C@H](O)[C@@H]2O
stdin: Which of these two has the smaller recorded inhibition: I or II ? Please indicate the selected item by its label.
stdout: II

====

# tested-target: Adenosine receptor A3 (Homo sapiens, UniProt P0DMS8)
# Sequence (P0DMS8 whole entry): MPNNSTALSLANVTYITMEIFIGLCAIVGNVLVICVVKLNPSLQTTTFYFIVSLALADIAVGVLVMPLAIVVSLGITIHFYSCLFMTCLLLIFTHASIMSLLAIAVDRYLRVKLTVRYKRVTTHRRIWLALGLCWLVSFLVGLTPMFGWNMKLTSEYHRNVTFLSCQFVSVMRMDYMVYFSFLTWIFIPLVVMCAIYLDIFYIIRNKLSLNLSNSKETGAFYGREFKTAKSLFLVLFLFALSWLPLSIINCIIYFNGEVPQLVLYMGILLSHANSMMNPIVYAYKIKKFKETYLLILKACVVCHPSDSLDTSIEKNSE
# procedure-summary: Binding affinity to human A3AR assessed as inhibitor constant
parameter: pKi
Interpret pKi as the negative base-10 log of the concentration measured in mol/L.

stdin: // lookup pKi | system=Adenosine receptor A3 (Homo sapiens, UniProt P0DMS8) | key= CCNC(=O)[C@H]1O[C@@H](n2cnc3c(NC)nc(C#C[C@@H](O)c4ccccc4)nc32)[C@H](O)[C@@H]1O
stdout: 9.12
